These measurements were taken from ChEMBL document CHEMBL2417398.

- System: Leishmania braziliensis
- EXPERIMENTAL DETAILS: Antileishmanial activity against Leishmania braziliensis promastigotes after 24 hrs by cell counting
- Format: functional, organism-based
- CONDITIONS: Leishmania braziliensis, 24 h
// logIC50 lookup, one value per entry
The reply should be a number, written without any unit.

smiles_input=N=C(N)c1ccc(OCCCCCOc2ccc(C(=N)N)cc2)cc1 measure_name=logIC50 reported_result=1.36
smiles_input=COc1ccc(/N=C(\Nc2ccccc2)c2ccc(OC)cc2)cc1 measure_name=logIC50 reported_result=1.42
smiles_input=COc1ccc(/N=C(\Nc2ccc(OC)cc2)c2ccccc2)cc1 measure_name=logIC50 reported_result=2.13

Fill blank: measured logIC50 of the compound `COc1ccc(/C(=N/c2ccccc2)Nc2ccccc2)cc1` is ____.
2.05

###

// Activity lookup, one value per entry
- EXPERIMENTAL DETAILS: Cytotoxicity against macrophages (unknown origin) at 320 ug/ml
- Type: cell-based
- CONDITIONS: macrophage
Quick reminder: number only, in %, skip the unit.

// below: answered compounds
smiles_input=COc1ccc(/N=C(\Nc2ccccc2)c2ccc(OC)cc2)cc1 reported_result=15
smiles_input=N=C(N)c1ccc(OCCCCCOc2ccc(C(=N)N)cc2)cc1 reported_result=100

Turning to the following compound.
Fill blank: measured Activity of the compound `COc1ccc(/N=C(\Nc2ccc(OC)cc2)c2ccccc2)cc1` is ____.
100
